# ASSAY_TEXT: Mouse IV PK
# MEASUREMENT_CONDITIONS: mouse, plasma, iv, 25 mg/kg
MEASURED_ATTRIBUTE: half-life (h)
Answers are plain numbers, in h.

Which half-life value is on record for COc1c(OCC2CCOCC2)cc(N2C[C@@H](C)n3c(c(CCCOc4cc(C)c(Cl)c(C)c4)c4ccc(Cl)c(-c5c(C)nc(C)nc5C)c43)C2=O)c2c1cc(C(=O)O)n2C [Compound 26] ?
3.7

* * *

# ASSAY_TEXT: Mouse IV PK
# MEASUREMENT_CONDITIONS: mouse IV, dosed at 25 mg/kg
So I've got a bunch of compounds here, and I need their CL values.
One number for each entry, in mL/min/kg.

Solved cases (5 shown):
Could you share which CL value was measured for "COc1c(OCC2CCOCC2)cc(N2C[C@@H](C)n3c(c(CCCOc4cc(C)c(Cl)c(C)c4)c4ccc(Cl)c(-c5c(C)nc(C)nc5C)c43)C2=O)c2c1cc(C(=O)O)n2C" ?
2.2

Reported CL, compound "COc1cc(N2C[C@@H](C)n3c(c(CCCOc4cc(C)c(Cl)c(C)c4)c4ccc(Cl)c(-c5c(C)ncnc5C)c43)C2=O)c2c(cc(C(=O)O)n2C)c1OC" : ____
43

Recorded CL for "COc1cc(N2C[C@@H](C)n3c(c(CCCOc4cc(C)c(Cl)c(C)c4)c4ccc(Cl)c(-c5c(C)nc(C)nc5C)c43)C2=O)c2c(cc(C(=O)O)n2C)c1OC" , please?
45

Data request, read-out CL, for "COCCOc1cc(N2C[C@@H](C)n3c(c(CCCOc4cc(C)c(Cl)c(C)c4)c4ccc(Cl)c(-c5c(C)nc(C)nc5C)c43)C2=O)c2c(cc(C(=O)O)n2C)c1OC"
51

Tell me the measured CL of "COc1c(OC[C@H]2CCCO2)cc(N2C[C@@H](C)n3c(c(CCCOc4cc(C)c(Cl)c(C)c4)c4ccc(Cl)c(-c5c(C)ncnc5C)c43)C2=O)c2c1cc(C(=O)O)n2C" , please.
15

Please turn your attention to the following entry.
What value of CL has been reported for the following compound? "COCCOc1cc(N2C[C@@H](C)n3c(c(CCCOc4cc(C)c(Cl)c(C)c4)c4ccc(Cl)c(-c5c(C)ncnc5C)c43)C2=O)c2c(cc(C(=O)O)n2C)c1OC"
58

Data provenance is paper PMC11345828.
